Entry source: ChEMBL document CHEMBL4823320

The following compounds are shown together with reported Stabilty values.
assay: Chemical stability of compound in tris assay buffer at pH 9 measured after 90 mins by HPLC/MS analysis; assay type: physicochemical; conditions: pH 9, 1.5 h
All answers are understood in %, so give the number only.

These solved cases illustrate the format of a correct answer.
smiles: O=C(Nc1ccccc1)c1cc2cc(O)c(O)cc2o1
unitsSymbol: %
Stabilty: 83
//
smiles: O=C(Nc1ccccc1)c1nc2cc(O)c(O)cc2s1
unitsSymbol: %
Stabilty: 94
//
smiles: O=C(Nc1nc2cc(O)c(O)cc2s1)C(c1ccccc1)c1ccccc1
unitsSymbol: %
Stabilty: 83

Continue with the next compound.
Which measured Stabilty value corresponds to O=C(Nc1nc2cc(O)c(O)cc2s1)c1ccccc1 ?
61
